System: Vero E6 infected with SARS-CoV-2
TEST_NAME: inhibition of SARS-CoV-2 cytopathic effect; higher = more antiviral protection, active = above 15
RUN_PARAMETERS: 10000 nM; 48 h
Entries annotated with measured inhibition of SARS-CoV-2 cytopathic effect
I only need the number, in %, no unit after it.

// worked examples, inhibition of SARS-CoV-2 cytopathic effect included
>>> reported("CC1=C(C)C(=O)C(C(CCCCCC(=O)O)c2ccccc2)=C(C)C1=O (stereo not given)")
1.24
>>> reported("C#C[C@]1(O)CC[C@H]2[C@@H]3CCc4cc(OC)ccc4[C@H]3CC[C@@]21C")
-0.67

Indicate its recorded inhibition of SARS-CoV-2 cytopathic effect; the compound in question is COc1c(N2CCNC(C)C2)c(F)cc2c(=O)c(C(=O)O)cn(C3CC3)c12 (stereo not given)
-2.52

Indicate its recorded inhibition of SARS-CoV-2 cytopathic effect; the compound in question is O=C(Oc1cc(S(=O)(=O)c2ccccc2)ccc1[N+](=O)[O-])c1ccc(Cl)cc1
-0.09

Indicate its recorded inhibition of SARS-CoV-2 cytopathic effect; the compound in question is Cc1ccnc(NC(=O)C(C)c2cccc(C(=O)c3ccccc3)c2)c1 (stereo not given)
3.81

Indicate its recorded inhibition of SARS-CoV-2 cytopathic effect; the compound in question is O=P(O)(NCCCl)NCCCl [palifosfamide]
-7.07

Indicate its recorded inhibition of SARS-CoV-2 cytopathic effect; the compound in question is CC(=O)C1=C(O)[C@@H]2[C@H]3c4c[nH]c5cccc(c45)C[C@H]3C(C)(C)N2C1=O
14.2

Indicate its recorded inhibition of SARS-CoV-2 cytopathic effect; the compound in question is C[C@]12CC[C@H](O)C[C@H]1CC[C@@H]1[C@@H]2CC[C@]2(C)[C@@H](C3=CC(=O)OC3)CC[C@]12O
-19.4

Indicate its recorded inhibition of SARS-CoV-2 cytopathic effect; the compound in question is O=C(COc1cccc2c(=O)[nH]ccc12)c1ccccc1
0.99

Indicate its recorded inhibition of SARS-CoV-2 cytopathic effect; the compound in question is CCOc1ccc(Nc2nc(-c3c(C)nc4ccccn34)cs2)cc1
1.71

Indicate its recorded inhibition of SARS-CoV-2 cytopathic effect; the compound in question is COc1ccc2[nH]c3c(-c4cccc5ccccc45)nccc3c2c1
-2.93

Indicate its recorded inhibition of SARS-CoV-2 cytopathic effect; the compound in question is CN1CCN(c2ccc3nc(-c4c(N)c5c(F)cccc5[nH]c4=O)[nH]c3c2)CC1
-0.5

Indicate its recorded inhibition of SARS-CoV-2 cytopathic effect; the compound in question is CCCc1nn(C)c2c(=O)[nH]c(-c3cc(S(=O)(=O)N4CCN(C)CC4)ccc3OCC)nc12
-2.29

Indicate its recorded inhibition of SARS-CoV-2 cytopathic effect; the compound in question is CC(C)C[C@H](NC(=O)CNC(=O)c1cc(Cl)ccc1Cl)B1OC(=O)C(CC(=O)O)(CC(=O)O)O1 [ixazomib-citrate]
20.8

Indicate its recorded inhibition of SARS-CoV-2 cytopathic effect; the compound in question is CN(C)C(=O)Oc1cc(OC(=O)N(C)C)cc(C(O)CNC(C)(C)C)c1 (stereo not given)
-1.86
